Ref: paper PMC11445558

Target: TRIM25 CC-PRY/SPRY (Homo sapiens, UniProt Q14258 189-630)
Sequence (Q14258 189-630): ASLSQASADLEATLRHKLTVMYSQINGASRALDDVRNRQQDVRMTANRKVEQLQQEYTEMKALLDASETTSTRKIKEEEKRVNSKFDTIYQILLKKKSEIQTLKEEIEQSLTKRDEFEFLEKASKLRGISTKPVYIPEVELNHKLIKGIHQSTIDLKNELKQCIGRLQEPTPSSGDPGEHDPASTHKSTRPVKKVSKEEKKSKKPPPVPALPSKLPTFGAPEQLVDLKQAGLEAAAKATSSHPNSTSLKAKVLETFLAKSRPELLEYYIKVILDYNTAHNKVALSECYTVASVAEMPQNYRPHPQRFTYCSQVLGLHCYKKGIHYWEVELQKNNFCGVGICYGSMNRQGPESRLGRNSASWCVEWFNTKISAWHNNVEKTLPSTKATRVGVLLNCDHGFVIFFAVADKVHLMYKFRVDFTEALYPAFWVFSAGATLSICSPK
Test: ITC; ITC: 20 mM MES pH 6.5, 75 mM NaCl, 0.5 mM TCEP, 20 C; protein NMR: 20 mM sodium phosphate pH 6.5, 150 mM NaCl, 2 mM TCEP, 293 K
Details: protein: recombinant; tags: His-Trx, cleaved (3C); chain copies: 2; hairpin
MEASURE: Kd (nM)
Just the number please, in nM, no unit attached.

Looking for the measured Kd of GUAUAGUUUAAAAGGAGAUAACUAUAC (structured_RNA) [pre-let-7a-1@2 (pre-let-7)] , can you help?
62
